# System: maïs
# experimental_protocol: Exemple C: selectivity test in field crops, pre-emergence (crop); also: ranges in brackets are in %
# Format: in vivo
# assay_conditions: dose 0.5 Kg m.a./ha, 24 days, 0 or 1 = selective
attribute_measured: Notation de l'activité herbicide ZEA

Tested on maïs: O=S(=O)(CC(O)(CBr)c1ccc(F)c(Cl)c1)c1ccsc1 (stereo not shown) [compound 65] . Observed Notation de l'activité herbicide ZEA: 0 (90 à 100)

Tested on maïs: O=S(=O)(CC(O)(CBr)c1cccc(F)c1)c1cccs1 (stereo not shown) [compound 53] . Observed Notation de l'activité herbicide ZEA: 2 (50 à 70)

Tested on maïs: O=S(=O)(CC(O)(CBr)c1cccc(F)c1)c1sccc1Cl (stereo not shown) [compound 67] . Observed Notation de l'activité herbicide ZEA: 1 (70 à 90)

Tested on maïs: CC(=O)OC(CBr)(CS(=O)(=O)c1sccc1Br)c1ccccc1 (stereo not shown) [compound 60] . Observed Notation de l'activité herbicide ZEA: 0 (90 à 100)

* * *

# System: Echinochloa crus-galli
# experimental_protocol: Exemple C: selectivity test in field crops, pre-emergence (weed)
# Type: in vivo
# assay_conditions: dose 0.5 Kg m.a./ha, 24 days
Would you mind telling me the reported Notation de l'activité herbicide ECh of each entry?

// field: Notation de l'activité herbicide ECh; key: O=S(=O)(CC(O)(CBr)c1cccc(F)c1)c1cccs1 (stereo not shown) ; value = 4 (10 à 30)

// field: Notation de l'activité herbicide ECh; key: O=S(=O)(CC(O)(CBr)c1ccc(F)c(Cl)c1)c1ccsc1 (stereo not shown) ; value = 5 (O à 10)

// field: Notation de l'activité herbicide ECh; key: CC(=O)OC(CBr)(CS(=O)(=O)c1sccc1Br)c1ccccc1 (stereo not shown) ; value = 5 (O à 10)

// field: Notation de l'activité herbicide ECh; key: O=S(=O)(CC(O)(CBr)c1cccc(F)c1)c1sccc1Cl (stereo not shown) ; value = 4 (10 à 30)

* * *

# Tested on: maïs
# experimental_protocol: Exemple C: selectivity test in field crops, pre-emergence (crop); also: ranges in brackets are in %
# Format: in vivo
# assay_conditions: dose 1 Kg m.a./ha, 24 days, 0 or 1 = selective
Would you mind telling me the reported Notation de l'activité herbicide ZEA of each entry?

// field: Notation de l'activité herbicide ZEA; key: C=C(CS(=O)(=O)c1sc(C)nc1C)c1cccc(F)c1 ; value = 0 (90 à 100)

// field: Notation de l'activité herbicide ZEA; key: C=C(CS(=O)(=O)c1sc(C)nc1C)c1cc(C)cc(C)c1 ; value = 0 (90 à 100)

// field: Notation de l'activité herbicide ZEA; key: CS(=O)(=O)OCC(O)(CS(=O)(=O)c1cccs1)c1cc(Cl)cc(Cl)c1 (stereo not shown) ; value = 1 (70 à 90)

// field: Notation de l'activité herbicide ZEA; key: O=S(=O)(CC(O)(CBr)c1cc(Cl)cc(Cl)c1)c1cccs1 (stereo not shown) ; value = 1 (70 à 90)

The reported measurements were obtained from patent EP0435794A1.
